- System: NLK
- condition: concentration: 1 μM, replicates: in singlicate; n = 1;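 further: KINOMEscan kinase panel screen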
assay.endpoint: %Inh
Remember to quote the unit after the number.

# annotated cases, reported %Inh shown
Sure, the documented %Inh for `Cc1ccc(NC(=O)Nc2ccccc2)cc1-c1ccc(C(=O)Nc2ccncc2)cc1` is 51%

Lab note: measured %Inh of COc1ccc(Nc2nccc(N3CCC(NC(=O)C(C)c4ccc(Cl)cc4)C3)n2)cc1 (centres unmarked) was 14%

Reported %Inh of `Cc1ccc(NC(=O)Nc2ccc(Cl)cc2)cc1-c1ccc(C(=O)Nc2ccncc2)cc1` : 11%

# %Inh of `COc1nccc(-c2c(-c3ccc(F)cc3)ncn2CCCN2CCOCC2)n1` = 0%

Note: attention shifts to another entry.
Lab note: measured %Inh of `CCc1ccc(-c2ccc3c(c2)-c2n[nH]cc2S(=O)(=O)N3C)cc1` was 0%

---

- Test system: MTOR
- condition: concentration: 1 μM, replicates: in singlicate; n = 1
Give label 1 when the value for %Inh is at least 10%. Give label 0 when it is less.

Item Fc1ccc(-c2nn3cccc(F)c3c2-c2ccncc2)cc1 [GW475620] with %Inh of 10% or above? label 1

Next:
Threshold query (%Inh >= 10%) on Fc1ccc(-c2nc3n(c2-c2ccncc2)CCS3)cc1 [GI98581] label 1

Test whether the compound Cc1ccc(NC(=O)Nc2ccc(Cl)c(C(F)(F)F)c2)cc1-c1ccc(C(=O)Nc2ccncc2)cc1 [GSK1398470] records %Inh of 10% or higher. label 1

---

- Tested on: WNK1
- condition: concentration: 1 μM, replicates: in singlicate; n = 1
Recorded %Inh, one value per entry.
Kindly provide the numeric value in % only, without the unit symbol.

Item: CS(=O)(=O)CCNCc1nc(-c2ccc3ncnc(Nc4ccc(OCc5ccccc5)c(Cl)c4)c3c2)cs1.Cl [GW582764] | System: WNK1 | %Inh: 6

Entry Cn1cncc1-c1cc2c(Nc3ccc(OCc4ccccc4)cc3)ncnc2cn1 [GW281179] , tested on WNK1, has a reported %Inh of 7

Value sought: %Inh, system WNK1, item O=C(Nc1n[nH]c2nc(-c3cccs3)c(Br)cc12)C1CCCC1 [SB-743341] . Result: 0

// %Inh (WNK1) for Cc1ccccc1Cn1ccn2c(=O)cc(N3CCOCC3)nc12 [GSK2269905] = 10

// compound O=C(Nc1n[nH]c2nc(-c3ccco3)c(Br)cc12)C1CCN(Cc2ccccc2)C1.O=C(O)[C@H](O)[C@@H](O)C(=O)O (stereo not drawn) [SB-742034] , assay WNK1, %Inh value: 0

Next:
For the compound CC(C)c1cc(-c2ccc3c(N)n[nH]c3c2)nc(N)n1 [GSK2250882] , the measured %Inh on WNK1 was 0

Measured on WNK1, CCn1c(-c2c(N)noc2C)nc2cnccc21 [SB-737856] has a documented %Inh of 20

Let me check: Cl.Cl.Cl.N#Cc1ccc(CCNc2nccc(-c3cccc(CN4CCNCC4)c3)n2)cc1 [GSK2137462] , system WNK1, measured %Inh is 0

Simply: COc1cc2ncnc(Nc3cccc(Br)c3)c2cc1OC.Cl [GI230329] , WNK1, %Inh = 0

---

- Test system: CDC2L2
- condition: concentration: 1 μM, replicates: in singlicate; n = 1
assay.endpoint: %Inh (%)
State just the number; it will be interpreted in %.

Entry COC(=O)c1cccc(NC(=O)NC2CCN(c3ccnc(Nc4ccc(OC)cc4)n3)C2)c1 (stereo not shown) [GSK1379746] — recorded %Inh = 32

Looking up COc1ccc2cc(-c3nc(-c4ccccc4C(C)C)[nH]c3-c3ccncc3)ccc2c1 [SB-660566] , I found its %Inh recorded as 2

%Inh measured on COC(=O)C(NC(=O)NC1CCN(c2ccnc(Nc3ccc(F)cc3)n2)C1)c1ccccc1 (stereo not shown) [GSK1379712] = 17

Turning to the following compound.
Reported %Inh of Cc1ccccc1-c1cc(-c2c[nH]nc2-c2ccccn2)ccn1 [GW680061] : 9
